The reported numbers originate from paper PMC11480844.

B1: H2-Kb / Ed9 (parent complex)
chain 1: AQSVTQPDARVTVSEGASLQLRCKYSYFGTPYLFWYVQYPRQGLQLLLKYYPGDPVVQGVNGFEAEFSKSNSSFHLRKASVHWSDWAVYFCAVSITGGYKVVFGSGTRLLVSP
chain 2: DSGVVQSPRHIIKEKGGRSVLTCIPISGHSNVVWYQQTLGKELKFLIQHYEKVERDKGFLPSRFSVQQFDDYHSEMNMSALELEDSAMYFCASSPRQSDYTFGSGTRLLVI
chain 3: not shown
chain 4: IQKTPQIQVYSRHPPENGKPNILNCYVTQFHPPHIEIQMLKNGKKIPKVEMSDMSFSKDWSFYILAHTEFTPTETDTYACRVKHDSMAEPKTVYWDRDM
chain 5: SIINFEKL

- Variants of: B1
- protocolNotes: % of reporter cells activated (NFAT-GFP), raw; further: test concentration or dose not given here
assayEndpoint: ratio to parent

chain 5 K7I
0.919

(P) chain 5 S1G
(Q) chain 5 I2M
Incoming: Dear colleague, could you let me know whether P or Q has the lower recorded ratio to parent? Thanks. # respond with the chosen item's label
Outgoing: P
(P: 0.224, Q: 1.18)

(A) chain 5 I3G
(B) chain 5 I2P
(C) chain 5 I3F
Incoming: Form: Sort by [ratio to parent] Order [ ascending ] Provide the labels, sequenced as the question asks.
Outgoing: C, A, B

(P) chain 5 S1V
(Q) chain 5 L8K
(R) chain 5 I3Y
(S) chain 5 N4V
Incoming: Order the records by ratio to parent, with each subsequent value no larger than the one before. Provide the labels, sequenced as the question asks.
Outgoing: Q, R, S, P
